System: T1, SUDV GP on pseudotyped lentiviral vector (Sudan virus (SUDV), UniProt Q7T9D9 33-676)
T1 sequence: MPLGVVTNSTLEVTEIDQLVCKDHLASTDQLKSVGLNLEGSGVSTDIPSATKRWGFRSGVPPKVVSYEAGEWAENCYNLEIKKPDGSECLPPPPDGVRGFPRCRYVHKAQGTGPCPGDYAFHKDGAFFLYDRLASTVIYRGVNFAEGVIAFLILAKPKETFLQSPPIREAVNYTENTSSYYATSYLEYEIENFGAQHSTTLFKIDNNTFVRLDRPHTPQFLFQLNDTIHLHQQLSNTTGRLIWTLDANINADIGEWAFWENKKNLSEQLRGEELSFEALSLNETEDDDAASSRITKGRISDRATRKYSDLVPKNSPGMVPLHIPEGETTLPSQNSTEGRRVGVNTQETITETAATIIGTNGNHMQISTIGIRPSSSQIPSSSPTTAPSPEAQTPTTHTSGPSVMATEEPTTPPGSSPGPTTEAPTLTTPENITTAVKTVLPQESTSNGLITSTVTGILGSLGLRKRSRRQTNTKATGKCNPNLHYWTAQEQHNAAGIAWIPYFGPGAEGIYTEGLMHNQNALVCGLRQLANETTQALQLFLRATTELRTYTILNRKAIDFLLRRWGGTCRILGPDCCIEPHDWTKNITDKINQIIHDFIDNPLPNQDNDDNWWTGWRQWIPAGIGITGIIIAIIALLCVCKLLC
Protocol Notes: cell-based or functional assay
Property Name: IC50, microneutralization of GP-pseudotyped lentiviral vector on HEK293 cells (µg/mL)
Numbers only, in µg/mL.

antibody 338S (antibody, V domains shown) VH: EVQLVESGGGVVQPGRSLRLSCAASGFTFSQYGMHWVRQAPGKGLECVAVIWFDGSKKYYGDSVKGRFTISRDNSKNTLYLQMNSLRAEDTAVYFCARESLYYYDSGGHYYERGRIDYWGQGTLVTVSS VL: DIQMTQSPSSLSASVGDRVTITCRASQDISNFLAWFQQKPGKAPKSLIYAASSLLSGVPSKFSGSGSGTDFTLTISSLQPEDFATYYCQQYNSYPPTFGQGTKLEIK	0.6

Hey, can you go through the list below and give me IC50, microneutralization of GP-pseudotyped lentiviral vector on HEK293 cells for every item?
1. antibody 528S (antibody, V domains shown) VH: EVQLAESGGGVVQPGRSLRLSCAASGFTFNSYGMHWVRQAPGKGLEWVAVIWDDGSKKYYADSVKGRFTISRDNSKNTLFLQMNSLRAEDTAVYYCARETIMFTFGEVIVSSRDNYYMDVWGKGTTVTVSS VL: EIVLTQSPATLSLSPGERATLSCRASQSVSNYLAWYQQKPGQAPRLLIYDASTRAIGIPARFSGVGSGTDFTLTISSLEPEDFAVYYCQQRSNWPPLTFGGGTKVEIK
2. antibody 365S (antibody, V domains shown) VH: EVQLVESGGGLVQPGGSLRLSCAASGLTFSAYEMNWVRQAPGKGLEWVSHITTSGSAIYYADSVKGRFTISRDNAKNSLHLQMNRLRADDTAVYFCARDSTIVQCSGTSCHVSTYSYMDVWGKGTTVTVSS VL: EIVLTQSPATLSLSPGERATLSCRASQSVTTYLAWYQHKPGQAPRLLIYDASKRATGIPARFSGSGSGTDFTLTISSLEPEDFAVYHCQQRSSWPPITFGQGTRLEIK
3. antibody 102S (antibody, V domains shown) VH: EVQLVESGGGLVQPGGSLRLSCSASGFTFHSYDMNWARQAPGKGLEWVSEISSSGQSKNYADSVRGRFTISRDNAKNSLYLQINSLRSEDTAVYYCARVGFVAKFGSDFSITHGTYYLDYWGQGTLVTVSS VL: QLVLTQSPATLSLSPGERATLSCRASQSVSNYLAWYQQKPGQAPRLLIYDASNRAPGVPARFSGSGSGTDFSLTISSLEPEDFAVYYCLQRSNWPPWTFGQGTKVEIK
4. antibody 285S (antibody, V domains shown) VH: QVQLVQSGAEVKKPGSSVKVSCKASGGTFSTYAITWVRQAPGQGLEWMGRIIPILRVANYAQKFQGRVTITADSSTSTAYMELSSLRSEDTAVYYCANLLAYCGGDCRSDYWGQGTLVTVSS VL: EIVLTQSPGTLSLSPGERATLSCRASQSVKNSYLAWYHQKPGQAPRLLIYGASSRATGIPDRFSGSGSGTDFTLTISRLEPEDFAVYYCQQYGSSLWTFGQGTKVDVK
5. antibody 377S (antibody, V domains shown) VH: QVQLVQSGAEVKKPGSSVKVSCKASGGTFSNYAINWVRQAPGQGLEWMGRTIPFLGLTNYAENFQARVTITADKSTGTSYMQLSSLRSEDTAVYFCAKAATSGWSPFDNWGQGTLVTVSS VL: EIVLTQSPGTLSLSPGERATLSCRASQSISSSYFGWYQQKPGQAPRLLIYGASRRAAGIPDRFSCSGSGTDFTLTISRLEPEDFGVYYCQQYGSSPTFGQGTKVEIK

[0.58, 0.79, 0.88, 0.64, 0.56]
